Assay: Inhibition of rat serum BuChE using butyrylthiocholine iodide as substrate after 15 mins by Ellman method
Assay type: cell-free
pIC50: −log10 of the molar value.
Think of 4 as a floor: if pIC50 stands on it or above, it is yes (1); beneath it, no (0).

{"columns": ["compound", "assigned-class"],
 "data": [
  ["COc1cc(O)c2c(=O)cc(C(=O)NCCCCCCN(C)Cc3ccccc3)oc2c1", "yes (1)"],
  ["COc1ccccc1CN(C)CCCCNC(=O)c1cc(=O)c2c(O)cccc2o1", "yes (1)"],
  ["COc1cc2c(cc1OC)C(=O)C(CC1CCN(Cc3ccccc3)CC1)C2 (stereo unspecified) [DONEPEZIL]", "yes (1)"],
  ["COc1cc(O)c2c(=O)cc(C(=O)NCCCCCCN(C)Cc3ccccc3OC)oc2c1", "yes (1)"],
  ["CN(C)c1cc(O)c2c(=O)cc(C(=O)O)oc2c1", "no (0)"],
  ["C#CCN(CCCCNC(=O)c1cc(=O)c2c(O)cc(OC)cc2o1)Cc1ccccc1OC", "yes (1)"],
  ["CCN(CCCCNC(=O)c1cc(=O)c2c(O)cccc2o1)Cc1ccccc1OC", "yes (1)"],
  ["COc1cc(O)c2c(=O)cc(C(=O)NCCCCN3CCOc4ccccc4C3)oc2c1", "no (0)"],
  ["CCN(CCCCCCNC(=O)c1cc(=O)c2c(O)cccc2o1)Cc1ccccc1OC", "yes (1)"],
  ["CCN(CCCCNC(=O)c1cc(=O)c2c(O)cc(OC)cc2o1)Cc1ccc(N(C)C)cc1", "yes (1)"],
  ["CCN(CCCCNC(=O)c1cc(=O)c2c(O)cc(O)cc2o1)Cc1ccccc1OC", "no (0)"],
  ["CCN(CCCNC(=O)c1cc(=O)c2c(O)cc(OC)cc2o1)Cc1ccccc1OC", "no (0)"],
  ["CCN(CCCCNC(=O)c1cc(=O)c2c(O)cc(OC)cc2o1)Cc1ccccc1N(C)C", "yes (1)"],
  ["CCN(CCCNC(=O)c1cc(=O)c2c(O)cc(O)cc2o1)Cc1ccccc1OC", "no (0)"],
  ["CCN(CCCCCCNC(=O)c1cc(=O)c2c(O)cc(O)cc2o1)Cc1ccccc1OC", "no (0)"],
  ["COc1cc(O)c2c(=O)cc(C(=O)NCCCN(C)Cc3ccccc3)oc2c1", "no (0)"],
  ["CCN(CCCCCCNC(=O)c1cc(=O)c2c(O)cc(OC)cc2o1)Cc1ccccc1OC", "yes (1)"]
]}

###

Target: Acetylcholinesterase (Electrophorus electricus, UniProt O42275)
Sequence (O42275 whole entry): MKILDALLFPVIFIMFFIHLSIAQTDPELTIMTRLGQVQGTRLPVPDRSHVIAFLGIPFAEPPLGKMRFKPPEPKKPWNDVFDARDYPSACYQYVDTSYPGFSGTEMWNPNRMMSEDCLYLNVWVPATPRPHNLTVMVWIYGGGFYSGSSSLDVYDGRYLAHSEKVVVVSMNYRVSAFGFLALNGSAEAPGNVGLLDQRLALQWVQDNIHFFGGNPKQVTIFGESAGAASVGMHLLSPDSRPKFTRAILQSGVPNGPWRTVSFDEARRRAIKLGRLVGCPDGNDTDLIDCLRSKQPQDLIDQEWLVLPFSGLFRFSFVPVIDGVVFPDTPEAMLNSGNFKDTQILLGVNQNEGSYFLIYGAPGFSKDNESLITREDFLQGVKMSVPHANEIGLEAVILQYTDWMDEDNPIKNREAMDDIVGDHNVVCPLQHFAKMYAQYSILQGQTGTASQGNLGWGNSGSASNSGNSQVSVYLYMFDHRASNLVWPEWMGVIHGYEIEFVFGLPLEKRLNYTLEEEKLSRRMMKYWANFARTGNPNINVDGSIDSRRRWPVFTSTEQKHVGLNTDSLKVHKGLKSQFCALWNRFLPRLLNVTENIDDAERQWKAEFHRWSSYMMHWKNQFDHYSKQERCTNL
Assay: Inhibition of electric eel AChE using acetylthiocholine iodide as substrate after 15 mins by Ellman method
Settings: read-out: IC50
pIC50: −log10 of the molar value.
Measured pIC50, listed per entry for reference.
result-type: pIC50

{"columns": ["molecule", "result-operator", "obs-value"],
 "data": [
  ["CCN(CCCCNC(=O)c1cc(=O)c2c(O)cc(OC)cc2o1)Cc1ccc(N(C)C)cc1", "=", 5.04],
  ["CCN(CCCCCCNC(=O)c1cc(=O)c2c(O)cccc2o1)Cc1ccccc1OC", "=", 6.28],
  ["CCN(CCCCNC(=O)c1cc(=O)c2c(O)cc(N(C)C)cc2o1)Cc1ccccc1N(C)C", "=", 5.45],
  ["CN(C)c1cc(O)c2c(=O)cc(C(=O)O)oc2c1", "<", 3.70],
  ["CCN(CCCCNC(=O)c1cc(=O)c2c(O)cc(O)cc2o1)Cc1ccccc1OC", "=", 4.44]
]}
